Every entry's value here was drawn from ChEMBL document CHEMBL1201862.

- System: RXF 393
- ASSAY_NAME: NCI tumour cell line growth inhibition, 48 h
The source made the active and inactive calls. No stated cut-off is given here; in the data, active = GI50 up to about 1.1 µM and inactive = higher.
# GI50 per record follows
PROPERTY_NAME: GI50

INSERT INTO measurements (compound, assay_result) VALUES
  ('O=C1C=C(Nc2cccnc2)c2ccccc2/C1=N/O', '33.7 µM (inactive)'),
  ('Cc1cc(C)c(O)c(CN2CCN(C(C)C)CCN(C(C)C)CC2)c1', '16 µM (inactive)'),
  ('O=C(O)C1CC(c2ccccc2)=NN1c1ccccc1 (centres undefined)', '87.1 µM (inactive)'),
  ('N#C/C(=C\c1cc(O)cc(O)c1)C(N)=O', '> 100 µM (inactive)'),
  ('O=C(Nc1nnc(-c2c(Cl)c(Cl)c(Cl)c(Cl)c2-c2nc3cc(C(=O)c4ccccc4)ccc3[nH]2)o1)c1ccccc1', '12.3 µM (inactive)'),
  ('CCOC(=O)c1sc2nc1CSc1sc(=S)sc1SCc1nc(sc1C(=O)OCC)-c1nc(c(C(=O)OCC)s1)CSc1sc(=S)sc1SCc1nc-2sc1C(=O)OCC', '> 10 µM (inactive)'),
  ('Cc1cc(C)nc(/C(=N\NC(N)=O)C(=O)Nc2nc3ccc(C)cc3s2)c1', '> 100 µM (inactive)'),
  ('CC(=O)OCCOCNC(=S)N/N=C(\C)c1cnccn1', '23.2 µM (inactive)'),
  ('CCOC(=O)c1cc(Br)c(-c2cc(C)no2)[nH]1', '31 µM (inactive)'),
  ('COc1ccc(-c2c(C#N)c(N)nc(Sc3ccccc3N)c2C#N)cc1', '6.46 µM (inactive)'),
  ('Nc1c(-c2ccc(Cl)c(Cl)c2)c2ccc([N+](=O)[O-])cc2c(=O)n1-c1nc2ccccc2s1', '0.689 µM (active)'),
  ('COc1cc2cc(C(=O)N3CC(CCl)c4ccc(O)cc43)[nH]c2c(OC)c1OC (centres undefined)', '< 0.0001 µM (active)'),
  ('CC(C)C1OC(/C=C/c2ccccc2)OCC1(C)C (centres undefined)', '18.1 µM (inactive)'),
  ('CC(=O)OCc1c(C)c2ccccc2n1C(C)=O', '33 µM (inactive)'),
  ('CCOC(=O)Nc1sc2c(c1C#N)CC(C)CC2 (centres undefined)', '5.38 µM (inactive)'),
  ('O=C(c1c(F)c(F)c(F)c(F)c1F)c1c(F)c(F)c(F)c(F)c1F', '1.55 µM (inactive)'),
  ('COC(=O)[C@@H]1c2c(oc3cc(CO)cc(O)c3c2=O)C=C[C@H]1O', '2.8 µM (inactive)'),
  ('COc1ccc(-c2oc3cc(OC)c(OC)c(O)c3c(=O)c2OC)cc1', '22.7 µM (inactive)'),
  ('O=C(/C=C/c1ccc(OCc2ccccc2)cc1)NCc1ccc(C(=O)NCc2ccccc2)cc1', '0.687 µM (active)'),
  ('CSc1c(C(=O)Nc2ccc(Cl)cc2)c(N)n(N)c(=O)c1C#N', '> 100 µM (inactive)'),
  ('CC(C)CCC[C@@H](C)C1CCC2[C@@H]3CC=C4C[C@@H](OC(=O)CCC(=O)NCC[N+](C)(C)CCCS(=O)(=O)[O-])CC[C@]4(C)C3CC[C@@]21C (some centres undefined)', '11.3 µM (inactive)'),
  ('O=C(c1ccccc1)c1ccc(N2C(=O)/C(=C/c3cccc(Oc4ccccc4)c3)N=C2c2ccccc2)c(N2C(=O)/C(=C/c3cccc(Oc4ccccc4)c3)N=C2c2ccccc2)c1', '23.8 µM (inactive)'),
  ('O=c1c2cc([N+](=O)[O-])ccc2[nH]n1Cc1ccccc1Cl', '35.2 µM (inactive)'),
  ('O=C(/C=C/c1cccs1)c1cccc(C(=O)/C=C/c2cccs2)n1', '> 48.9 µM (inactive)'),
  ('CCCC(=O)NC(C(=O)OCC)(N1CCOCC1)C(F)(F)F (centres undefined)', '> 100 µM (inactive)'),
  ('FC(F)(F)c1nc(-c2ccccc2)oc1Sc1nnc(Sc2oc(-c3ccccc3)nc2C(F)(F)F)s1', '21.1 µM (inactive)'),
  ('CSc1nc(O)c(C#N)c(-c2ccc(Cl)cc2)n1', '66.7 µM (inactive)'),
  ('C=CCCCCn1c2ccccc2c2c(C)c3c[n+](C)ccc3c(C)c21', '0.684 µM (active)'),
  ('CC1CC(N)=Nc2ccccc2N1 (centres undefined)', '> 100 µM (inactive)'),
  ('COc1cc(Br)c(CC2C3=C(CCN2C(=O)C2CCC2)CC2(CC3)OCCO2)cc1O (centres undefined)', '4.84 µM (inactive)'),
  ('COc1cc(NC=C2C(=O)OC(C)(C)OC2=O)c(OC)c(C)c1OC', '> 100 µM (inactive)'),
  ('O=C1/C(=C/C=C/c2ccccc2)CCC1CNc1ccc(Br)cc1 (centres undefined)', '> 100 µM (inactive)'),
  ('COc1ccc(/C=C2\N/C(=N\N=C/C(O)C(O)C(O)C(O)CO)NC2=O)cc1 (centres undefined)', '56.5 µM (inactive)'),
  ('CC(N)C(=O)OCN1C(=O)C2C3C=CC(C2C1=O)C1C2C(=O)N(COC(=O)C(C)N)C(=O)C2C31 (centres undefined)', '22.2 µM (inactive)'),
  ('Nc1nc(O)c2nc(CNc3ccc(C(=O)NC(CCC(=O)O)C(=O)O)cc3)cnc2n1 (centres undefined)', '> 100 µM (inactive)'),
  ('COC(=O)[C@H](Cc1ccccc1)NC(=O)N(CCNC(=O)OC(C)(C)C)c1ccccc1', '87.1 µM (inactive)'),
  ('CC1(C)CCC[C@@]2(C)C1CC[C@@]1(CO)O[C@H](C3=CC(=O)OC3O)C[C@H]12 (some centres undefined)', '11 µM (inactive)'),
  ('COc1cc2c(ccc3c4cc(OC)c(OC)cc4c[n+](C)c23)cc1O', '30 µM (inactive)'),
  ('CC1=C[C@H]([C@H]2C=C(C)C(C(N)=O)=CN2Cc2c(Cl)cccc2Cl)N(Cc2c(Cl)cccc2Cl)C=C1C(N)=O', '74.5 µM (inactive)');
